B1: Gamma-crystallin C, residues 91 to 170; numbered along this chain, P07315 (parent)
chain: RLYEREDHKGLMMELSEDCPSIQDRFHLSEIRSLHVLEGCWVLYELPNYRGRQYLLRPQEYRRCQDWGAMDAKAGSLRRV

- Variants of: B1
- testMethodNotes: abundance fitness (aPCA) (normalised: wild type 0, dead -1); higher = more abundant; growth selection in yeast, the domain comes from the species named
- conditionDescription: Homo sapiens
Binning of abundance fitness into classes: low: < -0.5; medium: ≥ -0.5 and < -0.1; high: ≥ -0.1

Here's what some known entries look like.
K73N ... high
L56H ... low
R57W ... medium
E14G ... low
C40A ... high

Determine which band this variant sits in: S76I
high

Determine which band this variant sits in: L46V
low

Determine which band this variant sits in: P47C
medium

Determine which band this variant sits in: Y3G
low

Determine which band this variant sits in: D66S
medium

Determine which band this variant sits in: Y44T
low

Determine which band this variant sits in: M70G
medium

Determine which band this variant sits in: R50Q
high

Determine which band this variant sits in: M13G
high

Determine which band this variant sits in: K73W
medium

Determine which band this variant sits in: Y44H
medium

Determine which band this variant sits in: R32F
low

Determine which band this variant sits in: R25Q
medium

Determine which band this variant sits in: E60T
high

Determine which band this variant sits in: S29I
medium
